Source: patent US20100160255A1

Molecular target: human ACC1 (Homo sapiens, UniProt Q13085)
Construct: made in house; host or cells: SF-9 insect cells, recombinant baculovirus BAC-ACC1
Experiment: ACC1 inhibitory activity (malachite green absorbance assay, recombinant enzyme)
Format: biochemical
Conditions: Table 8; recombinant human ACC1; 30° C.; absorbance 620 nm; read-out: IC50 (ACC1 inhibitory activity)
pIC50: −log10 of the molar value.
Measurement name: pIC50

1. CC(=O)c1cccc(-c2cc(C(=O)N3CCC(N4CCCC5(C4)CC(C)(C)OC5=O)CC3)cc(-c3cccnc3)c2)c1 (stereo not drawn) : 5.48
2. CC1(C)CC2(CN(C3CCN(C(=O)c4c5ccccc5cc5ccccc45)CC3)CCN2)C(=O)O1 (stereo not drawn) : 5.80
3. CCNC(=O)Nc1sc(-c2ccc(C(=O)O)cc2)cc1C(=O)N1CCC(N2CCCC3(C2)CC(C)(C)OC3=O)CC1 (stereo not drawn) : 7.10
4. CNC(=O)Nc1sc2ccccc2c1C(=O)N1CCC(N2CCCC3(CCN(C(C)C)C3=O)C2)CC1 (stereo not drawn) : 6.96
5. CCNC(=O)Nc1sc2ccccc2c1C(=O)N1CCC(N2CCCC3(CCN(CC)C3=O)C2)CC1 (stereo not drawn) [Example 400] : 7.01
6. CCNC(=O)Nc1sc2ccccc2c1C(=O)N1CCC(N2CCCC3(C2)CC(C)(C)OC3=O)CC1 (single isomer, unassigned) [Example 319] : 7.52
7. CCNC(=O)Nc1sc2ccccc2c1C(=O)N1CCC(N2CCCC3(C2)OC(=O)N(CC)C3=O)CC1 (racemic) [Example 228] : 6.72
8. CCN1C(=O)CC2(CCCN(C3CCN(C(=O)c4c(NC(=O)NC)sc5ccccc45)CC3)C2)C1=O (stereo not drawn) : 6.47
9. CCN1C(=O)CC2(CCCN(C3CCN(C(=O)c4c(NC(N)=O)sc5ccccc45)CC3)C2)C1=O (racemic) [Example 240] : 6.46
10. CCNC(=O)Nc1cnc(-c2ccccc2)cc1C(=O)N1CCC(N2CCCC3(C2)CC(C)(C)OC3=O)CC1 (stereo not drawn) : 5.85
11. CCN1C(=O)CC2(CCCN(C3CCN(C(=O)c4c(NC(N)=O)sc5ccccc45)CC3)C2)C1=O (stereo not drawn) [Example 340] : 6.89
12. CC(C)N1C(=O)OC2(CCCN(C3CCN(C(=O)c4c(NC(N)=O)sc5ccccc45)CC3)C2)C1=O (stereo not drawn) : 6.59
13. CCNC(=O)Nc1sc2ccccc2c1C(=O)N1CCC(N2CCCC3(C2)N=C(C)N(CC)C3=O)CC1 (racemic) [Example 233] : 6.96
14. CCNC(=O)Nc1sc(-c2ccccn2)cc1C(=O)N1CCC(N2CCCC3(C2)CC(C)(C)OC3=O)CC1 (stereo not drawn) : 6.85
15. CCNC(=O)Nc1sc2ccccc2c1C(=O)N1CCC(N2CCCC3(CC(=O)N(C)C3=O)C2)CC1 (stereo not drawn) : 6.68
16. CC(C)NC(=O)Nc1sc2ccccc2c1C(=O)N1CCC(N2CCCC3(CC(=O)NC3=O)C2)CC1 (stereo not drawn) : 6.66
17. CCN1C(=O)OC2(CCCN(C3CCN(C(=O)c4c(NC(N)=O)sc5ccccc45)CC3)C2)C1=O (stereo not drawn) : 6.54
18. CCN1C(=O)OC2(CCCN(C3CCN(C(=O)c4c(NC(=O)NC)sc5ccccc45)CC3)C2)C1=O (stereo not drawn) : 6.51
19. CCNC(=O)Nc1sc2ccccc2c1C(=O)N1CCC(N2CCCC3(CCN(CC)C3=O)C2)CC1 (racemic) [Example 321] : 6.44
20. CCNC(=O)Nc1sc(-c2ccccn2)cc1C(=O)N1CCC(N2CCCC3(C2)OC(=O)N(CC)C3=O)CC1 (stereo not drawn) : 6.01
21. CC(C)N1C(=O)CC2(CCCN(C3CCN(C(=O)c4c(NC(N)=O)sc5ccccc45)CC3)C2)C1=O (stereo not drawn) : 6.74
22. CCNC(=O)Nc1sc2ccccc2c1C(=O)N1CCC(N2CCCC3(C2)OC(=O)N(CC)C3=O)CC1 (stereo not drawn) [Example 327] : 6.70
23. CCN1CCC2(CCCN(C3CCN(C(=O)c4c(NC(=O)NC)sc5ccccc45)CC3)C2)C1=O (stereo not drawn) : 6.52
24. CC1(C)CC2(CCCN(C3CCN(C(=O)c4cc(-c5cccnc5)nc5ccccc45)CC3)C2)C(=O)O1 (stereo not drawn) : 5.32
25. CCN1CCC2(CCCN(C3CCN(C(=O)c4c5ccccc5cc5ccccc45)CC3)C2)C1=O (stereo not drawn) : 5.72
26. CCNC(=O)Nc1sc2ccccc2c1C(=O)N1CCC(N2CCCC3(CC(=O)NC3=O)C2)CC1 (stereo not drawn) : 6.40
27. CCCN1CCC2(CCCN(C3CCN(C(=O)c4c(NC(N)=O)sc5ccccc45)CC3)C2)C1=O (stereo not drawn) : 6.54
28. CCNC(=O)Nc1sc2ccccc2c1C(=O)N1CCC(N2CCCC3(C2)CC(C)(C)OC3=O)CC1 (stereo not drawn) [Example 36] : 7.10
29. CCCN1C(=O)OC2(CCCN(C3CCN(C(=O)c4c(NC(N)=O)sc5ccccc45)CC3)C2)C1=O (stereo not drawn) : 6.47
30. CCNC(=O)Nc1sc2ccccc2c1C(=O)N1CCC(N2CCCC3(C2)N=C(C)N(CC)C3=O)CC1 (stereo not drawn) [Example 401] : 7.14
